# literature pull: Rho-associated protein kinase 1 (Homo sapiens, UniProt Q13464) log10(IC50)
valueKind: log10(IC50) (log10 of the value in nM)

- compound: "COc1cc(C(=O)NCc2cccc(C(=O)NC3CCN(C)CC3)c2)ccc1-c1cn[nH]c1"
  log10(IC50): -0.37
- compound: "COc1cccc(C(CN2CCNCC2)NC(=O)c2cccc(-c3ccc4[nH]ncc4c3)c2)c1 (stereo not shown)"
  log10(IC50): 2.54
- compound: "COc1cccc([C@@H](C)NC(=O)c2ccc(-c3cn[nH]c3)cc2OCCO)c1"
  log10(IC50): 0.86
- compound: "COc1ccc(CNC(=O)c2cc(C3NC(=O)NC(C)=C3C(=O)Nc3ccc4[nH]ncc4c3)ccc2F)cc1 (stereo not shown)"
  log10(IC50): 1.70
- compound: "COc1cc(C(=O)NCc2cccc(C(=O)N3CCCC3)c2)ccc1-c1cn[nH]c1"
  log10(IC50): 1.81
- compound: "Cn1c(C(=O)N2CC(C(F)(F)F)C2)cc2ccc(-c3nccc(Nc4ccc(-c5cn[nH]c5)cc4)n3)cc21"
  log10(IC50): 3.69
- compound: "CC(C)NC(=O)c1cc2ccc(-c3nc(Nc4ccc(-c5cn[nH]c5)cc4)c4occc4n3)cc2[nH]1"
  log10(IC50): 3.48
- compound: "O=C(Nc1ccncc1)c1cc2ccc(-c3nccc(Nc4ccc5[nH]ncc5c4)n3)cc2[nH]1"
  log10(IC50): 3.43
